The reported numbers originate from ChEMBL document CHEMBL2412982.

method.summary: fAUC/MIC in Mycobacterium tuberculosis infected mouse
Assay type: functional

{"compound": "CO[C@H]1/C=C/O[C@@]2(C)Oc3c(C)c(O)c4c(O)c(c(/C=N/N5CCN(C)CC5)c(O)c4c3C2=O)NC(=O)/C(C)=C\\C=C\\[C@H](C)[C@H](O)[C@@H](C)[C@@H](O)[C@@H](C)[C@H](OC(C)=O)[C@@H]1C", "fAUC/MIC": 300}
{"compound": "COc1nc2ccc(Br)cc2cc1[C@@H](c1ccccc1)[C@@](O)(CCN(C)C)c1cccc2ccccc12", "fAUC/MIC": 1}
{"compound": "CC[C@@H](CO)NCCN[C@@H](CC)CO", "fAUC/MIC": 25}
{"compound": "O=[N+]([O-])c1cn2c(n1)OC[C@@H](OCc1ccc(OC(F)(F)F)cc1)C2", "fAUC/MIC": 16}
{"compound": "NNC(=O)c1ccncc1", "fAUC/MIC": 800}
{"compound": "CC(C)/N=c1\\cc2n(-c3ccc(Cl)cc3)c3ccccc3nc-2cc1Nc1ccc(Cl)cc1", "fAUC/MIC": "<1"}
{"compound": "OC(c1cc(C(F)(F)F)nc2c(C(F)(F)F)cccc12)C1CCCCN1 (centres undefined)", "fAUC/MIC": 1.6}
{"compound": "COc1c(N2C[C@@H]3CCCN[C@@H]3C2)c(F)cc2c(=O)c(C(=O)O)cn(C3CC3)c12", "fAUC/MIC": 53}
{"compound": "NC(=O)c1cnccn1 [PYRAZINAMIDE]", "fAUC/MIC": 21}
